Cited source: ChEMBL document CHEMBL2218924

# target of assay: Serine/threonine-protein kinase haspin (Homo sapiens)
# condition label: at 10 µM
Below: a set of entries, each annotated with reported residual activity.
readout label: residual activity (%)

O=C1NC(=O)C(c2cn(CCCn3ccnc3)c3ccccc23)=C1Nc1ccccc1
52
O=C1Nc2ccccc2/C1=C\c1c(Cl)[nH]c2ccccc12
61
N#C/C(=C\c1ccc(O)c(O)c1)C(=O)NCc1ccccc1
48
N#Cc1c(NC(=O)c2cccc3ccccc23)sc2c1CCCC2
64
Nc1n[nH]c2nc3ccccc3nc12
41
CC(C)[C@H](CO)Nc1nc(Nc2cc(N)cc(Cl)c2)c2ncn(C(C)C)c2n1
20
O=C1NC(=O)C(c2c[nH]c3ccccc23)=C1c1c[nH]c2ccccc12
69
O=C(O)/C=C/c1cc(Br)c(Br)c(Br)c1Br
71
Nc1ncnc2c1cnn2-c1ccccc1
83
CCCCc1c(-c2ccc(O)cc2)[nH]c2nccnc12
12
Nc1ncnc2c1c(-c1ccc(Oc3ccccc3)cc1)cn2C1CCCC1
44
Fc1ccc(-c2nc3n(c2-c2ccncc2)CCS3)cc1
96
O=c1c(-c2ccc(F)cc2)c(-c2ccncc2)[nH]n1-c1ccc(Cl)cc1
75
O=c1cc(N2CCOCC2)oc2c1ccc1ccccc12
26
Nc1ncnc2[nH]nc(Nc3ccc(F)cc3)c12
53
c1ccc(-c2cnc(Nc3ccc(OCCN4CCCC4)cc3)s2)cc1
51
Oc1cccc(-c2nc(N3CCOCC3)c3oc4ncccc4c3n2)c1
32
O=C(CCCc1ccc(-c2ccccc2F)cc1)Nc1ccc(O)cc1
98
CCCC(=O)Oc1ccc2[nH]c(C(=O)c3cc4ccccc4[nH]3)cc2c1
99
NCCNc1ncc(C(N)=O)c(Nc2cccc(C(F)(F)F)c2)n1
7
COc1ccc(-c2cnc3c(-c4ccsc4)cnn3c2)cc1
83
Cc1cc(C)c(/C=C2\C(=O)Nc3ccccc32)[nH]1
77
O=C(c1cc2cc(O)ccc2[nH]1)c1cc2cc(O)ccc2[nH]1
7
N#C/C(=C1/Nc2ccccc2S1)c1ccnc(NCCc2cccnc2)n1
-2
NC(=O)Nc1sc(-c2ccc(F)cc2)cc1C(N)=O
51
O=C1NC(=O)C(c2cn(CCCO)c3ncccc23)=C1c1cnccn1
55
